Attribution: patent US20260069689A1

# tgt: SARS-COV-2 RBD-MMH (SARS-COV-2 RBD extracellular domain with C-terminal myc-myc-hexahistidine tag) (SARS-CoV-2)
measured-metric: t½ at pH 7.4

INSERT INTO results (binder, recorded_result) VALUES
  ('mAb14289 (antibody, V domains shown) VH: QVQLVQSGPEVKKPGASVKVSCKASGYTFTSYAISWVRQAPGQGLEWMGWISAYNGNTNYAQKLQGRVTMTTDTFTSTAYMELRSLRSDDTAVYYCAVPADHITFDYWGQGTLVTVSS VL: EIVLTQSPGTLSLSPGERATLSCRASQSVSSYLAWYQQKPGQAPRLLIHGASSRATGIPDRFSGSGSGTDFTLTISRLEPEDFAVYYCQQYGSSFLTFGGGTKVEIKR', '6.2 min'),
  ('mAb14286 (antibody, V domains shown) VH: QVQLVQSGAEVKKPGASVKVSCKASGYTFTDYFIHWVRQAPGQGLEWMGWINPTSGGTNYAQKFRGRVTMTRDTSISTAYVELSRLRSDDTALYYCARDLPFYSDTKQFDYWGQGTLVTVSS VL: QSALTQPASVSGYPGQSITISCTGTSSDVGGYNYVSWYQQHPGKAPKLMIFDVSNRPSGVSNRFSGSKSGNTASLTFSGLQAEDEADYYCSSYTSSSTLVFGGGTKLTVLG', '1.2 min'),
  ('mAb14294 (antibody, V domains shown) VH: EVQLVESGGGLVQPGGSLRLSCAASGFTFSNHWMDWVRQAPGKGLVWVSRINSDGSSTDYADSVRGRFTMSRDNAKNTLYLQMSSLRAEDTAVYYCAREGMIFGAVIIPGWYFDLWGRGALVTVSS VL: EIVLTQSPGTLSLSPGERATLSCRASQSVSSSQLAWYQQKPGQAPRLLIYGASSRATGIPDRFSGSGSGTDFTLTISRLEPEDFAVYYCQQYDSFGQGTKLEIKR', '12.6 min');
